target: Myo3, P36006; assay: SPOT array; details: median of control spots 468
parameter-measured: SPOT intensity
Reply with the value as a number alone.

Below, 4 binders whose answers are already recorded.
RVRKTHVPASKRPSG	1
RRASLFPRDPKRLRP	7
KRRTSLFPWLHKPGI	0
IRMPSNPALPKKLLN	72

Asked: Could you share which SPOT intensity value was measured for `TTAPALPSLPPPPLL` ?
Given back: 728

Asked: Given `NIKVLLNPKLGKPVK` , state its recorded SPOT intensity.
Given back: 6

Asked: // lookup SPOT intensity for `LLRRTIPKRPFYHVL`
Given back: 0
